Test system: VSVg pseudotyped virus
procedure details: organism not typed
Type: cell-based
experimental parameters: read-out: Activity (EC50 in μM vs. pseudotyped virus) VSVg
In this section we review reported EC50 values for a set of molecules.

Some entries whose results are on file:
molecule: CCc1ccc(/C=C/c2ccc3c(c2)ncn3-c2ccc(OC(C)C)cc2)cc1 [Compound 8]
system: VSVg pseudotyped virus
observed measurement: 10 to 50 µM

molecule: CCOc1ccc(-c2c[nH]c3cc(NCc4ccc(CC)cc4)ccc23)cc1 [Compound 64]
system: VSVg pseudotyped virus
observed measurement: 10 to 50 µM

molecule: CCOc1ccc(-n2cnc3cc(/C=C\c4ccc(C(C)(C)C)cc4)ccc32)cc1 [Compound 5]
system: VSVg pseudotyped virus
observed measurement: 10 to 50 µM

molecule: CC(C)Oc1ccc(-n2cnc3cc(/C=C\c4ccc(C#N)cc4)ccc32)cc1 [Compound 49]
system: VSVg pseudotyped virus
observed measurement: 10 to 50 µM

molecule: CCOc1ccc(-n2cnc3cc(CCc4ccc(CC)cc4)cnc32)cc1 [Compound 28]
system: VSVg pseudotyped virus
observed measurement: > 50 µM

Task: Which EC50 value belongs to CC(C)Oc1ccc(-n2cnc3cc(/C=C\c4ccc(C5(O)CCOCC5)cc4)ccc32)cc1 [Compound 59] ?
Result: 1 to 10 µM

Task: Look up EC50: COc1ccc(-n2cnc3cc(/C=C/c4ccc(C(C)C)cc4)cnc32)cc1 [Compound 25]
Result: > 50 µM

Task: Param item = CCOc1ccc(-n2cnc3cc(/C=C\c4ccc(CC)cc4)ccc32)cc1 [Compound 2] ; retrieve measured EC50.
Result: 10 to 50 µM

----------
Tested on: VSVg pseudotyped virus
procedure details: organism not typed
Assay type: cell-based
experimental parameters: read-out: Activity (EC50 in μM vs. pseudotyped virus) VSVg
quantity: EC50

compound: CC(C)Oc1ccc(-n2cnc3cc(/C=C\c4ccc(C(C)(O)C(F)(F)F)cc4)ccc32)cc1 (stereo not shown)
EC50: 1 to 10 µM
--
compound: CCc1ccc(/C=C/c2ccc3c(c2)ncn3-c2ccc(OC(C)(C)C)cc2)cc1
EC50: 10 to 50 µM
--
compound: CC(C)Oc1ccc(-n2cnc3cc(/C=C\c4ccc(CCC=O)cc4)ccc32)cc1
EC50: 10 to 50 µM

Task: Request the reported EC50 associated with `COc1ccc(-n2cnc3cc(/C=C\c4ccc(C(C)C)cc4)cnc32)cc1`
Result: 10 to 50 µM

----------
The following compounds are listed with their measured EC50 values.
System: VSVg pseudotyped virus
procedure details: organism not typed
Format: cell-based
experimental parameters: read-out: Activity (EC50 in μM vs. pseudotyped virus) VSVg

compound: CCOc1ccc(-n2cnc3cc(OCc4ccc(CC)cc4)cnc32)cc1
quantity: EC50
observed measurement: 10 to 50 µM
--
compound: CC(C)Oc1ccc(-n2cnc3cc(/C=C\c4ccc(C(C)(C)C(F)(F)F)cc4)ccc32)cc1
quantity: EC50
observed measurement: 1 to 10 µM
--
compound: CC(C)Oc1ccc(-n2cnc3cc(/C=C\c4ccc(C5(O)CCC5)cc4)ccc32)cc1
quantity: EC50
observed measurement: 1 to 10 µM
--
compound: CCC(C)(O)c1ccc(/C=C\c2ccc3c(c2)ncn3-c2ccc(OC(C)C)cc2)cc1 (centres unmarked)
quantity: EC50
observed measurement: 1 to 10 µM
--
compound: CCOc1ccc(-n2c[n+]([O-])c3cc(NCc4ccc(CC)cc4)ccc32)cc1
quantity: EC50
observed measurement: 10 to 50 µM
--
compound: COC(=O)c1ccc(/C=C\c2ccc3c(c2)ncn3-c2ccc(OC(C)C)cc2)cc1
quantity: EC50
observed measurement: 10 to 50 µM

Task: Please give the measured EC50 for this compound: `COc1ccc(-n2cnc3cc(/C=C/c4ccc(C(C)C)cc4)ccc32)cc1`
Result: 10 to 50 µM

Task: Form field: reported EC50 of `COc1ccc(-n2cnc3cc(OCc4ccc(C(C)C)cc4)ccc32)cc1`
Result: 10 to 50 µM

----------
Test system: Sabiá pseudotyped virus
procedure details: organism not typed
Format: cell-based
experimental parameters: read-out: Activity (EC50 in μM vs. pseudotyped virus) Sabiá
Structures can show the parent of a compound that is named as a salt.
Property: EC50; scope: individual compounds

The examples below pair each entry with its known result.
compound: CC(C)Oc1ccc(-n2cnc3cc(/C=C\c4ccc(C(=O)O)cc4)ccc32)cc1
system: Sabiá pseudotyped virus
EC50: 1 to 10 µM

compound: CCOc1ccc(-n2cnc3cc(/C=C\c4ccc(CC)cc4)ccc32)nc1 [Compound 19, hydrochloride]
system: Sabiá pseudotyped virus
EC50: < 1 µM

Task: Name the recorded EC50 for `COc1ccc(-n2cnc3cc(OCc4ccc(C(C)C)cc4)cnc32)cc1` .
Result: < 1 µM

----------
EC50 values by entry
System: Sabiá pseudotyped virus
procedure details: organism not typed
Format: cell-based
experimental parameters: read-out: Activity (EC50 in μM vs. pseudotyped virus) Sabiá

Check out these entries, answers already filled in.
compound string: CC(C)(C)Oc1ccc(-n2cnc3cc(/C=C\c4ccc(C(C)(C)C)cc4)ccc32)cc1
EC50: < 1 µM
--
compound string: CCOc1ccc(-n2cnc3cc(CCc4ccc(CC)cc4)ccc32)cc1
EC50: < 1 µM
--
compound string: CCOc1ccc(-n2cnc3cc(/C=C\c4ccc(CC)cc4)ccc32)cc1
EC50: < 1 µM

Task: So what does the record say about EC50 for `CC(C)Oc1ccc(-n2cnc3cc(/C=C\c4ccc(C(C)(C)C)cc4)ccc32)cc1` ?
Result: < 1 µM

Task: # input compound: `CCOc1ccc(-n2cnc3cc(SCc4ccc(CC)cc4)ccc32)cc1` ; wanted: its EC50
Result: < 1 µM

Task: Return reported EC50; argument: `CCc1ccc(/C=C\c2ccc3c(c2)ncn3-c2ccc(OC(C)(C)C)cc2)cc1`
Result: < 1 µM

Task: Bench note: what EC50 did `CCOc1ccc(-n2cnc3cc(OCc4ccc(CC)cc4)cnc32)cc1` show?
Result: < 1 µM

Task: For `CCOc1ccc(-n2cnc3cc(/C=C\c4ccc(C(C)(C)O)cc4)ccc32)cc1` , what is its reported EC50?
Result: < 1 µM

----------
Test system: VSVg pseudotyped virus
procedure details: organism not typed
Assay type: cell-based
experimental parameters: read-out: Activity (EC50 in μM vs. pseudotyped virus) VSVg
quantity: EC50

compound: CC(C)Oc1ccc(-n2cnc3cc(/C=C\c4ccc(C(C)(C)O)cc4)ccc32)cc1 [Compound 38]
quantity: EC50
observed measurement: 1 to 10 µM
--
compound: CCOc1ccc(-n2cnc3cc(/C=C/c4ccc(C(C)(C)C)cc4)ccc32)cc1 [Compound 4]
quantity: EC50
observed measurement: 10 to 50 µM
--
compound: CC(C)Oc1ccc(-n2cnc3cc(/C=C\c4ccc(C(=O)O)cc4)ccc32)cc1 [Compound 45]
quantity: EC50
observed measurement: > 50 µM
--
compound: CCOc1ccc(-n2cnc3cc(SCc4ccc(CC)cc4)ccc32)cc1 [Compound 33]
quantity: EC50
observed measurement: 10 to 50 µM
--
compound: CC(C)Oc1ccc(-n2cnc3cc(/C=C\c4ccc(C5(O)COC5)cc4)ccc32)cc1 [Compound 53]
quantity: EC50
observed measurement: 1 to 10 µM
--
compound: CCOc1ccc(-n2cnc3cc(/C=C/c4ccc(CC)cc4)cnc32)cc1 [Compound 23]
quantity: EC50
observed measurement: > 50 µM
--
compound: CC(C)Oc1ccc(-n2cnc3cc(/C=C\c4ccc(C(C)(O)C(=O)O)cc4)ccc32)cc1 (centres unmarked) [Compound 55]
quantity: EC50
observed measurement: > 50 µM

Now take the following compound into account.
Task: // query EC50 value for entry CCOc1ccc(-n2cnc3cc(/C=C/c4ccc(OC(F)(F)F)cc4)ccc32)cc1 [Compound 10]
Result: > 50 µM

----------
Each record here notes measured EC50.
Tested on: VSVg pseudotyped virus
procedure details: organism not typed
Type: cell-based
experimental parameters: read-out: Activity (EC50 in μM vs. pseudotyped virus) VSVg
Where a name gives a salt, the structure may show the parent alone.

In the examples that follow, each entry is paired with its recorded EC50.
compound: CCOc1ccc(-n2cnc3cc(/C=C\c4ccc(CC)cc4)ccc32)nc1 [Compound 19, hydrochloride]
EC50: 10 to 50 µM

compound: CC(C)Oc1ccc(-n2cnc3cc(/C=C\c4ccc(C(C)(C)F)cc4)ccc32)cc1 [Compound 39]
EC50: 1 to 10 µM

compound: CCOc1ccc(-n2cnc3cc(/C=C\c4ccc(C(C)(C)O)cc4)ccc32)cc1 [Compound 61]
EC50: 10 to 50 µM

Could you now look at the following compound, please?
Task: # EC50 lookup, item CCOc1ccc(-n2cnc3cc(/C=C/c4ccc(C(C)(C)C)cc4)ccc32)nc1 [Compound 20, hydrochloride]
Result: 1 to 10 µM

----------
Listed below: EC50 values for each entry.
Test system: VSVg pseudotyped virus
procedure details: organism not typed
Type: cell-based
experimental parameters: read-out: Activity (EC50 in μM vs. pseudotyped virus) VSVg

Field: example entries. Status: answers known.
compound: CC(C)Oc1ccc(-n2cnc3cc(/C=C/c4ccc(C(C)(C)C)cc4)ccc32)cc1
system: VSVg pseudotyped virus
observed measurement: 10 to 50 µM

compound: CCOc1ccc(-n2cnc3cc(C#Cc4ccc(CC)cc4)cnc32)cc1
system: VSVg pseudotyped virus
observed measurement: 10 to 50 µM

compound: CCOc1ccc(-n2cnc3cc(/C=C\c4ccc(CC)cc4)cnc32)cc1
system: VSVg pseudotyped virus
observed measurement: 10 to 50 µM

Task: Which value of EC50 has been reported for `CCOc1ccc(-n2cnc3cc(CNc4ccc(CC)cc4)ccc32)cc1` in the records?
Result: 10 to 50 µM

Task: What value of EC50 has been reported for the following compound? `CCOc1ccc(-n2cnc3ccc(CCc4ccc(CC)cc4)cc32)cc1`
Result: 10 to 50 µM

Task: Which EC50 value is on record for CC(C)Oc1ccc(-n2cnc3cc(/C=C\c4ccc(C(C)O)cc4)ccc32)cc1 (stereo not shown) ?
Result: 1 to 10 µM
